Origin of the recorded values: paper PMC11513920

Assay: Mouse tissue (liver, kidney, brain) pharmacokinetics after oral dose
Assay type: in vivo, male C57BL/6 mice
Settings: male, C57BL/6, mouse, brain, po; p.o. 10 mg/kg, 4 h; read-out: mean prodrug concentration in brain
measured-attribute: concentration at 4 h (ng/mL)
Numbers only, in ng/mL.

# molecule, measured-number
measured = [
    ("C[C@H](Cn1cnc2c(N)ncnc21)OCP(=O)(O)OCCCSCCCCCCCCCCCCC1CCCCC1.N [16h]", 8.39),
]

// input: 2 molecules below; output: concentration at 4 h for each
1. CCCCCCCCCCCCCCCCSCCCOP(=O)(O)CO[C@H](C)Cn1cnc2c(N)ncnc21.N [2a]
2. C[C@H](Cn1cnc2c(N)ncnc21)OCP(=O)(O)OCCCSCCCCCCCCCCCCc1ccc(F)cc1.N [16g]

a:
2.19
5.74
